PROTOCOL_TEXT: in vitro
Type: cell-based
MEASUREMENT_CONDITIONS: human; Caco2 cells, 24 h, CCK-8
MEASURED_METRIC: CC50

If you can, please state the reported CC50 value of C=CCn1c(/C=C/c2ccccc2)nc2ccccc21 [F0414] .
> 200 µM

---

PROTOCOL_TEXT: in vitro
Assay type: cell-based
MEASUREMENT_CONDITIONS: African green monkey; Vero E6 cells, 24 h, CCK-8; approximate conversion of >200 μM
MEASURED_METRIC: CC50

If you can, please state the reported CC50 value of C=CCn1c(/C=C/c2ccccc2)nc2ccccc21 [F0414] .
> 52 µg/mL

---

PROTOCOL_TEXT: in vitro
Type: cell-based
MEASUREMENT_CONDITIONS: human; MRC-5 cells, 24 h, CCK-8; approximate conversion of >200 μM
MEASURED_METRIC: CC50

If you can, please state the reported CC50 value of C=CCn1c(/C=C/c2ccccc2)nc2ccccc21 .
> 52 µg/mL
